Examples of compounds with documented Cytotoxicity MCC (minimum cytotoxic concentration) follow.
test system: HEL cells; test: Cytotoxicity, microscopically detectable alteration of cell morphology; assay type: cell-based, human; details: microscopically detectable alteration of cell morphology

See these solved cases before continuing.
• CC(C)OP(=O)(CO[C@H](CF)Cn1cnc(N)nc1=O)OC(C)C = >100 µM
• NC1=NC(=O)N(C[C@@H](CF)OCP(=O)(O)O)CN1 = >100 µM
• CCOC(=O)C(C)NP(=O)(COC(CF)CN1CN2C=C(c3ccc([N+](=O)[O-])cc3)NC2=NC1=O)NC(C)C(=O)OCC (stereo not shown) [19b] = >100 µM

Here is the next item to consider.
Exam item: # get_value(readout='Cytotoxicity MCC (minimum cytotoxic concentration)', item= O=c1[nH]c(=O)n([C@H]2C[C@H](O)[C@@H](CO)O2)cc1/C=C/Br [BVDU, brivudine, reference compound] )
Marked response: >300 µM

====

Reported values of pEC50 for individual entries
system: vaccinia virus (VACV); assay: microbe, parasite or virus in culture; format: cell-based; conditions: Orthopoxvirus vaccinia, HEL, read-out: Antiviral activity - EC50 VACV
pEC50: −log10 of the molar value.

- NC1=NC(=O)N(C[C@@H](CF)OCP(=O)(O)O)CN1: < 4.00

Exam item: Any idea what its pEC50 is? The molecule is CC(=O)O.NC1=NC(=O)N(CC(O)C(F)(F)F)CN1 (stereo not shown)
Marked response: < 4.00

Exam item: Which pEC50 value is on record for Nc1nc2c(ncn2COCCO)c(=O)[nH]1 [ACV, acyclovir, reference compound] ?
Marked response: < 3.60

Exam item: Entry O=c1[nH]c(=O)n([C@H]2C[C@H](O)[C@@H](CO)O2)cc1/C=C/Br [BVDU, brivudine, reference compound] : reported pEC50 = ?
Marked response: 4.95

Exam item: Please give the measured pEC50 for this molecule: Nc1ccn(C[C@@H](CO)OCP(=O)(O)O)c(=O)n1 [CDV, cidofovir, reference compound]
Marked response: 4.59

Exam item: Name the recorded pEC50 for Nc1nc(O)c2ncn(COC(CO)CO)c2n1 [GCV, ganciclovir, reference compound] .
Marked response: < 4.00

Exam item: Any idea what pEC50 was measured for CCOC(=O)C(C)NP(=O)(COC(CF)CN1CN2C=C(c3ccc([N+](=O)[O-])cc3)NC2=NC1=O)NC(C)C(=O)OCC (stereo not shown) [19b] ?
Marked response: < 4.00

Exam item: For Nc1ncn(CC(O)C(F)(F)F)c(=O)n1 (stereo not shown) , what is its reported pEC50?
Marked response: < 3.35

Exam item: Entry CCOC(=O)C(C)NP(=O)(COC(CF)CN1CN2C=C(c3ccccc3)NC2=NC1=O)NC(C)C(=O)OCC (stereo not shown) [19a] : reported pEC50 = ?
Marked response: < 4.00

Exam item: Value lookup for pEC50; key = CCOC(=O)C(C)NP(=O)(COC(CF)CN1CN2C=C(c3ccc(OC)cc3)NC2=NC1=O)NC(C)C(=O)OCC (stereo not shown) [19c]
Marked response: < 4.00

Exam item: Query: pEC50; subject: Nc1ncn(CC(OCP(=O)(O)O)C(F)(F)F)c(=O)n1 (stereo not shown)
Marked response: < 4.00

Exam item: pEC50 for CC(C)OP(=O)(CO[C@H](CF)Cn1cnc(N)nc1=O)OC(C)C ?
Marked response: < 4.00

Exam item: Which pEC50 is reported for this molecule? Nc1ncn(C[C@@H](CF)OCP(=O)(O)O)c(=O)n1
Marked response: < 4.00

====

tested on: varicella-zoster virus (VZV) strain Oka (TK+); assay: microbe, parasite or virus in culture; type: cell-based; details: Human alphaherpesvirus 3, HEL, read-out: Antiviral activity - EC50 VZV Oka (TK+)
pEC50: −log10 of the molar value.
MEASURED ENDPOINT: pEC50

Solved cases below.
* CCOC(=O)C(C)NP(=O)(COC(CF)CN1CN2C=C(c3ccc([N+](=O)[O-])cc3)NC2=NC1=O)NC(C)C(=O)OCC (stereo not shown) [19b] | < 4.00
* CCOC(=O)C(C)NP(=O)(COC(CF)CN1CN2C=C(c3ccc(OC)cc3)NC2=NC1=O)NC(C)C(=O)OCC (stereo not shown) [19c] | < 4.00
* Nc1ncn(CC(O)C(F)(F)F)c(=O)n1 (stereo not shown) | 4.39
* O=c1[nH]c(=O)n([C@H]2C[C@H](O)[C@@H](CO)O2)cc1/C=C/Br [BVDU, brivudine, reference compound] | 7.64
* CC(C)OP(=O)(CO[C@H](CF)Cn1cnc(N)nc1=O)OC(C)C | 4.93
* CCOC(=O)C(C)NP(=O)(COC(CF)CN1CN2C=C(c3ccccc3)NC2=NC1=O)NC(C)C(=O)OCC (stereo not shown) [19a] | < 4.00
* CC(=O)O.NC1=NC(=O)N(CC(O)C(F)(F)F)CN1 (stereo not shown) | < 4.00
* Nc1ncn(C[C@@H](CF)OCP(=O)(O)O)c(=O)n1 | < 4.00

Exam item: Name the recorded pEC50 for Nc1ncn(CC(OCP(=O)(O)O)C(F)(F)F)c(=O)n1 (stereo not shown) .
Marked response: < 4.00

Exam item: What measured pEC50 goes with NC1=NC(=O)N(C[C@@H](CF)OCP(=O)(O)O)CN1 ?
Marked response: < 4.00
